EC50 listing for selected compounds.
# Tested on: VZV in MeWo or MRC5 cells
# testName: Viral qPCR assay VZV (V0/V1, V2/V3), EC50
# Assay type: cell-based
# assayContext: Human alphaherpesvirus 3, MeWo, MEWO cells, 10%; read-out: VZV Cell (EC50) MEWO 10%
attributeMeasured: EC50 (nM)

>>> observedresult("CC(=O)N1CCC(Oc2cc(C(=O)NCc3ccc(Cl)cc3)ncc2-c2cn[nH]c2)CC1 [Compound 69]")
351
>>> observedresult("Cc1cnc(-c2cnc(C(=O)NCc3ccc(Cl)cc3)cc2O[C@H]2CCN3C(=O)OC[C@@H]3C2)s1 [Compound 41]")
70.8
>>> observedresult("Cc1cnc(C(=O)NCc2ccc(Cl)cc2)cc1O[C@H]1CCN2C(=O)OC[C@@H]2C1 [Compound 68]")
126
>>> observedresult("CCCn1cc(-c2cnc(C(=O)NCc3ccc(Cl)cc3)cc2O[C@H]2CCN3C(=O)OC[C@@H]3C2)cn1 (racemic) [Compound 13]")
601
>>> observedresult("CC(=O)N1CCC(Oc2cc(C(=O)NCc3ccc(Cl)cc3)ncc2-c2cc[nH]n2)CC1 [Compound 64]")
440
>>> observedresult("CC(C)(C)n1cc(-c2cnc(C(=O)NCc3ccc(Cl)cc3)cc2O[C@H]2CCN3C(=O)OC[C@@H]3C2)cn1 (racemic) [Compound 12]")
977
>>> observedresult("O=C(NCc1ccc(Cl)cc1)c1cc(O[C@H]2CCN3C(=O)OC[C@@H]3C2)c(-c2ccn(CC(F)(F)F)n2)cn1 [Compound 14]")
234

====

pEC50 listing for selected molecules.
# Tested on: HCMV Strain AD169 in MRC-5 cells
# testName: Viral qPCR assay HCMV (V0/V1, V2/V3), EC50
# Assay type: cell-based
# assayContext: Human betaherpesvirus 5, AD169, MRC5, viral qPCR assay of Example 191; read-out: HCMV Cell (EC50)
pEC50: −log10 of the molar value.
attributeMeasured: pEC50

>>> observedresult("CC(=O)N1CCC(Oc2cc(C(=O)NCc3ccc(Cl)cc3)ncc2-c2nnc(C3CC3)s2)CC1 [Compound 57]")
6.88
>>> observedresult("O=C(NCc1ccc(Cl)cc1)c1cc(O[C@H]2CCN3C(=O)OC[C@@H]3C2)c(CN2CCC(O)CC2)cn1 [Compound 135]")
6.20
>>> observedresult("CC(=O)N1CCC(Oc2cc(C(=O)NCc3ccc(Cl)cc3)ncc2-c2cn(C)cn2)CC1 [Compound 50]")
6.34
>>> observedresult("O=C(NCc1ccc(Cl)cc1)c1cc(O[C@H]2CCN3C(=O)OC[C@@H]3C2)c(CN2CCSCC2)cn1 [Compound 139]")
6.38
>>> observedresult("O=C(NCc1ccc(Cl)cc1)c1cc(O[C@H]2CCN3C(=O)NC[C@@H]3C2)c(-c2cnn(C(F)F)c2)cn1 (racemic) [Compound 163]")
5.56
>>> observedresult("O=C(NCc1ccc(Cl)cc1)c1cc(O[C@H]2CCN3C(=O)OC[C@@H]3C2)c(-c2cnn(CCO)c2)cn1 [Compound 34]")
7.15
>>> observedresult("C#Cc1ccc(CNC(=O)c2cc(O[C@H]3CCN4C(=O)OC[C@@H]4C3)c(-c3cnn(C(F)F)c3)cn2)cc1 [Compound 88]")
6.21
>>> observedresult("Cn1cc(-c2cnc(C(=O)NCc3ccc(Cl)cc3)cc2OC2CCC(C#N)CC2)cn1 (centres unmarked) [Compound 168]")
5.95
>>> observedresult("CN(CCCO)Cc1cnc(C(=O)NCc2ccc(Cl)cc2)cc1O[C@H]1CCN2C(=O)OC[C@@H]2C1 [Compound 136]")
6.00
>>> observedresult("CC(=O)N1CCC(Oc2cc(C(=O)NCc3ccc(Cl)cc3)ncc2-c2cn[nH]c2)CC1 [Compound 69]")
6.17
>>> observedresult("COCCOC(=O)N(Cc1ccc(Cl)cc1)C(=O)c1cc(O[C@H]2CCN3C(=O)OC[C@@H]3C2)c(-c2cnn(C(F)F)c2)cn1 [Compound 179]")
5.86
>>> observedresult("CC(=O)N1CCC(Oc2cc(C(=O)NCc3ccc(Cl)cc3)ncc2-c2cnn(C(F)F)c2)CC1C (centres unmarked) [Compound 167]")
6.70
>>> observedresult("CCn1cc(-c2cnc(C(=O)NCc3ccc(Cl)cc3)cc2O[C@H]2CCN3C(=O)OC[C@@H]3C2)cn1 (racemic) [Compound 16]")
6.73
>>> observedresult("Cn1cc(-c2cnc(C(=O)NCc3ccc(C#N)c(F)c3)cc2O[C@H]2CCN3C(=O)OC[C@@H]3C2)cn1 [Compound 93]")
7.18

Taken from patent US20240067657A1.
